Experiment: soluble fraction after stress (log2 fold change); higher = more stays soluble; pooled small domains, quantitative proteomics
Conditions: stress: pH 4
# label = Fulfilled if soluble fraction (log2) >= -0.2 else Not fulfilled

Residue Sequence	Answer Label
HMLRQVSDSNALETAVKKVLDANPEEVERYKSGNKKLISFFVGQTMKATKGAGNPKEINSILAKLL	Fulfilled
HMGDADDLTRIKGIGPKLSKTLNELGIYHFRQIAGWQSDEADWVDDYLSFKGRVMREQWIEQAQKFAS	Not fulfilled

Does the sequence `HMDTFSVAIGTKTPDGSSVGEVKTISRDELLLLEDEVAEDPTKEIIFTGGTKDSAQAALDGWIDYNTNLAS` have recorded soluble fraction (log2) that is -0.2 or more?
Not fulfilled

Identify whether the reported soluble fraction (log2) of the following sequence is -0.2 or greater: `HMNIFKLYEENIGPLTPMIADILKEDEAEFPDYWIREAIEIAVKKNARNWKYVHAVLESWQKE`
Not fulfilled

* * *

Test: soluble fraction after stress (log2 fold change); higher = more stays soluble; pooled small domains, quantitative proteomics
Conditions: stress: pH 4
Experimental Readout: soluble fraction (log2)
Write the value as a bare number.

Reference set (3 entries):
Residue Sequence	Experimental Readout	Observed Value
HMYPMQNYSTIIGVIELRQQSVGYATTQKRYGIGSSTVTLIMKRFKELGLTLEELRAMPPKAVEVAFYPPE	soluble fraction (log2)	0.246
HMELEFLTEKQKEALILAVNRGYYDVDSEVTLKRLADELGIARSTYGEHLKRAESEALKMVVSDLLRD	soluble fraction (log2)	-1.03
HMSMQIILLDKVVNLGGLGDVVKVKDGYARNYLIPQGKAKRANTANLAEFEARRVELERLAAEQLAQAQA	soluble fraction (log2)	-0.478

Now for a further sequence.
The sequence listed as `HMDTSKIDYSEFITMLDKGEVESVVLKSDTLTVTLKHGTGMAAQTKTVTLMEDLSELTKRLEKAGVKSFDK` has a reported soluble fraction (log2) of 0.176

* * *

Experiment: soluble fraction after stress (log2 fold change); higher = more stays soluble; pooled small domains, quantitative proteomics
Conditions: stress: pH 4
Experimental Readout: soluble fraction (log2)

Lab note: `HMDSDMGQQLKTLLTVGTFMSSKELKAIAQQLGLKKPTDLKEWVELESGTQRIEGKPTKGYWIKMNDINN` gave soluble fraction (log2) of -0.288

Given item `HMGMAETTARILQLLGLLQSRRGWSGQELAERLGVTTRSVRRDVERLRELGYPVHASAGHGGGYQLGA` , the value recorded as its soluble fraction (log2) is -0.106

For reference, reported soluble fraction (log2) for `HMEVPVQYIKFKIPENHFWAKKKVADIILPPETLLVLLQRGSDKMIPDGETVLLPEDTLVLIAKAPG` stands at -0.783

The sequence `HMKTTKLEELDMQKEFILKNGKYGFGVYIGGKYIGLTDIGTVNSFKDSLQLPVVSLSDIDFKTFAEKF` showed soluble fraction (log2) equal to -1.34

Field soluble fraction (log2) (entry `HMKGPLKDLGPDPVTGKSILVKDGKFGTYVTDGETNATLRRGDIVELLTLERGMELLAEKRARATQ` ) reads -0.0516

Per the records, this sequence ( `HMSIGPQMAGRRVLSGDLIARLEAFEGTVVLGRGVAREDALLIATQAGHVRWEPASRRLWVDSTA` ) has soluble fraction (log2) equal to -0.0304

Measured soluble fraction (log2), `HMSDLTEVIVKFSGDIQPIRQDLDAQVEILLKGYAIITLSPNKIGRLYSYPQIESIEIPKNLYI` : -0.833

# soluble fraction (log2) of `HMVVLPGEVVALKIIQTGSSKDQGVGYLEDGTMVVVDGAKNSIGKTIEIQISRSHQTVAGRMLFGIAMS` = -0.0841

* * *

Assay: soluble fraction after stress (log2 fold change); higher = more stays soluble; pooled small domains, quantitative proteomics
Conditions: stress: pH 4
Experimental Readout: soluble fraction (log2)
Simply state the number, no unit and no words.

Use the examples below as a reference point.
Residue Sequence	soluble fraction (log2)
HMTQNSAITNRVLYMQRTLRQYGYAVPESGNFDRTTRAHAAEFLYNATGLPVRENQSVQEFYRAFQRVQG	0.203
HMNNGAEIGAEIRSLRKARGLTLEDLAAKIGRSVGYISQVERGISPLTIPNLKAIAEVLGVGINWFFRGEA	0.228
HMGAKLTTAQGGTLKVLVKGKKTHTPTIELRDKDPDFPNAKVVQPDINKGNKQIAHGINGVL	0.144
HMKKPRKTSRKSIENAAIFYLQRFSSSIENLRRVLMRRVYRSAQYHNTKPEEDAKIVDSIIYRLIETGVL	-0.0658
HMQAQQYYMLLMNKATSALKIEALGANSNKAHQSFGTKTAGGSAVYWGILFNSNGKIYKIVG	-0.15

For `HMDKKIVGVNAGKVWQALNEVTEISIVELAEKLNLSVESTALAAGWLAREDQISIERKNGTIELQRKN` the sequence record lists soluble fraction (log2) as -0.177

For reference, reported soluble fraction (log2) for `HMRPDDPYLVIGASREMGDEELKRHYRRLVAETHPDRGIARGLPAEAIAIATRRLAAINAAWDAIERERGL` stands at -0.158

Briefly, soluble fraction (log2) measured for `HMKRRSVIVSVVRAQVRQSADEAAAVVFEAEKNVSLDYLETMPGGWVKVRHRDGQTGFVRVNQIWG` : -0.79

* * *

Experiment: soluble fraction after stress (log2 fold change); higher = more stays soluble; pooled small domains, quantitative proteomics
Settings: stress: pH 4
Experimental Readout: soluble fraction (log2)
I'd appreciate a reply containing only the number, no unit.

See these solved cases before continuing.
Residue Sequence	soluble fraction (log2)
HMLKIAENIYQRRKEKNITQEELADFMMVTKASVSKWETGQSYPDILLLPKLATFFNVTVDELIGYEPQ	-1.07
HMGAPVIYELTAESAAGQRIDKYLSGQLADLSRSYLQKLLKDGGVEVNKKPVKSNYKLSEGDQIRLEVPEA	-0.198

// field: soluble fraction (log2); key: `HMKFPIITAKQDSDGKFYWAQTTDKGKTYTFILDGDGKKFPIGGTMPDVKINENGYWSVNGSSTGVLANDL` ; value = -0.295

Reported soluble fraction (log2) ( `HMAGRKMMVMANNLSVRKSANSLSEKLADLSRGDTVEYISSTNGWNKVRYKGQIGYVSSYYLKDTGEEVE` ) = 0.216

* * *

Test: soluble fraction after stress (log2 fold change); higher = more stays soluble; pooled small domains, quantitative proteomics
Details: stress: pH 4
Experimental Readout: soluble fraction (log2)
Please respond with just the number, no unit label.

Residue Sequence	soluble fraction (log2)
HMSQTVKYVNTTSGLNMRTGPATSYAKITTIAYGQSVNVLSTSNGWSKINYSGSTGYVSSQYLQSKKPS	0.183

Field soluble fraction (log2) (entry `HMSVKLMEVKGASTVVSRQVREAVSIVFPTSSMRLDLVALKARIEGVDAVKRADVYLRNGILEIQIDER` ) reads -0.981

Just so you know, measured soluble fraction (log2) for `HMLADEPTGALDSKTSVQIMALLTEIAQDRLVIMVTHNPELADEYATRIVNLRDGVISDDSDPFNP` came out at -0.289

soluble fraction (log2) recorded for this sequence, `HMAASEAESIRILLSEGVDRVHLRKPQSAEADMRRLIEALPPELYPRLTLQDHLHLAGEYGT` , is -0.162

The sequence listed as `HMKRLPAQMGGGDGVLRVPGLNNFVYVTIADKTLPAFNNRVPPKKGLRIWVGYSPEEPNLFQVLSTRTD` shows soluble fraction (log2) equal to 0.0233

Data point: `HMDLANLQNGQTLPLQRDVEVISIPFGKTISLSEDSVVSIMQAKGSSVSVAYEGRLYLIEGSNLDALGLEP` ; soluble fraction (log2) = -0.888

* * *

Experiment: soluble fraction after stress (log2 fold change); higher = more stays soluble; pooled small domains, quantitative proteomics
Conditions: stress: pH 4
Each entry below lists one item and its recorded soluble fraction (log2) value.

Residue Sequence	Observed Value
HMRTVAERYGLTAGQWRVLELLTQGKTNRQIAEMLDVTEGTVKIHVSAIFKAMKVTNRTQALLLAKKH	-0.522
HMSDFKDIILKLRNEQGFTQEKLADVLGTSKSTVGMWEMGVRFPSKELYEAIADYFNVDIDYLYGRTDIR	-1.35
HMYDKKVFRLLFILNQLDSRKKVSTGELAKEFNVSPRTVQRDIVLLNTTGFPIISLEKGYHSFMEGFSLK	-0.7
HMAVPFTIDVSQNGRYFIEEDNQVVEVSIGFLEDRFLRIIKSNPDIEVIIRGDAKASYESIAELLAVLQ	-0.782

Reported soluble fraction (log2) for `HMTDIDATSIERAVAKRRHFFLSNIQDLTMKMARRLIEKDLGLAPKHLDAAPFKTRITELVDAVIALGD` was -0.484

Looking up `HMLKPKDLHLGDSVRVLSLNLKGTVSSLPDTKGFLFVQMGIMRSKLHISDLQLIDEPVITAP` , I see its soluble fraction (log2) listed as -0.314

soluble fraction (log2) recorded for this sequence, `HMTDIKYLIADGNDIKHWDTASSSYVKVSELPLTSDKFKIYGDDIYHKERTGIIAASPILKIWSPSAE` , is -0.0343

# sequence `HMNKMHKLPSVSEILNKVRLQKIHNESFIKFKIKEEIDRYRKLAKKDQLFLSRDEITYEIIEKLLNFSMPS` ; its soluble fraction (log2) = -0.771
